system: MS2 coat protein; assay: apparent KD of MS2 coat protein, switch ON state; designed switch direction (-1 OFF switch, 1 ON switch): -1; higher = weaker reporter binding; conditions: FMN input: 0 or 200 uM; Eterna round: R93 (includes R88 designs)
The threshold is inclusive: apparent KD of MS2 coat protein of exactly 40 nM counts as criterion met; values below receive criterion not met.

Consider the worked cases shown below.
AACAGUACAGGAUAUACAUGAGGAUCACCCAUGUGAAAAUAAAGUGGCGUACCACGAAGUAGAAGGGUACUGGA [Ruby 58] ... criterion not met
AAGAAGUGAGGAUAUCGAAGACAGACGAAAAGUCUGUCAAACGAGAAGGCACAUGAGGAUCACCCAUGUAAGAA [What have we learned so far?] ... criterion not met
CAGUACUGAGGAUAUACAUGAGGAUCACCCAUGUAUCCUAGCUAGGAAACUAGCAAAUGUAGAAGGCAGUACUG [Ex3: 818] ... criterion met
AAAAUACAUGAGGAUCACCCAUGUGAGGAUAUCUUAAAGGGAAUAAAAUAACUCAAAAAGAGAAGGCACAAAAA [Ex 1 May 29] ... criterion not met

Item AGUUGGCGAGGAUAUACAUGAGGAUCACCCAUGUGAGAGAAAAAAAGGAAAAAAAAAAGUAGAAGGCGCUGACA [Mat - Exclusion 3 - Lego mod - D44] with apparent KD of MS2 coat protein of 40 nM or above?
criterion met

Now give it for AAAAGUCGAGGAUAUGCAAAAUGAUUGCGAAAGCAAUCAAAACAUGAGGAUCACCCAUGUAGAAGGCGACAAAA [Fiskers Exclusion 2 D3] too.
criterion not met

Reference for the values: the supplement of paper PMC9170038
